Data credit: PubChem BioAssay AID1159580

Assay: chemical genetic growth profiling, strain panel (AID 1159580);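 note: tested at 20 µM; growth read once vehicle control cultures reached saturation at 30 °C; lower values mean less growth of the strain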
Settings: S. cerevisiae deletion strains, growth OD, locus YDR392W, strain spt3
Out of some 5,500 compounds screened, about 2,000 (36%) were called active. Inconclusive results (about 18%) are left out. Cut-off read from the data, not from the text of the source: active = normalized growth mostly below about 0.91 (no sharp cut-off); inconclusive = no clear call, values can overlap the other calls; inactive = mostly above about 0.92. The list shows a part of the results.
Outcome (select one): True (active), False (inactive)

// outcome(item) with item = COc1c(O)cc2oc3cc(O)c(CC=C(C)C)c(O)c3c(=O)c2c1CC=C(C)C
True

// outcome(item) with item = NC[C@@H]1O[C@H](O[C@@H]2[C@@H](CO)OC(O[C@@H]3[C@@H](O)[C@H](N)C[C@H](N)[C@H]3OC3O[C@H](CN)[C@@H](O)[C@H](O)[C@H]3N)[C@@H]2O)[C@H](N)[C@@H](O)[C@@H]1O (some centres not stated)
False

// outcome(item) with item = CC(=O)[C@H]1CCC2C3C[C@H](C)C4=CC(=O)CC[C@]4(C)C3[C@@H](O)C[C@@]21C (some centres not stated)
False

// outcome(item) with item = CCCCCC(=O)O[C@]1(C(C)=O)CCC2C3CCC4=CC(=O)CC[C@]4(C)C3CC[C@@]21C (some centres not stated)
False

// outcome(item) with item = CC(=O)O[C@H]1C(=O)[C@@]2(C)C([C@H](OC(=O)c3ccccc3)[C@]3(O)C[C@H](O)C(C)=C1C3(C)C)[C@]1(OC(C)=O)CO[C@@H]1C[C@@H]2O (some centres not stated)
False

// outcome(item) with item = CC(=O)O[C@]1(C(C)=O)CCC2C3C=C(C)C4=CC(=O)CCC4(C)C3CCC21C (some centres not stated)
True

// outcome(item) with item = CC1(C)S[C@@H]2[C@H](NC(=O)[C@H](NC(=O)N3CCNC3=O)c3ccccc3)C(=O)N2C1C(=O)O (some centres not stated)
False

// outcome(item) with item = CC(=O)O[C@]1(C(C)=O)CCC2C3C=C(Cl)C4=CC(=O)CC[C@]4(C)C3CC[C@@]21C (some centres not stated)
False

// outcome(item) with item = CC1(C)C2CC[C@]3(C)C(C(=O)C=C4[C@@H]5C[C@@](C)(C(=O)O)CC[C@]5(C)CC[C@]43C)[C@@]2(C)CC[C@@H]1OC(=O)CCC(=O)O (some centres not stated)
False

// outcome(item) with item = CCCCCC(C)N (configuration not stated)
False

// outcome(item) with item = C[C@@H](N)CO
False

// outcome(item) with item = CC1(C)C2CC[C@]3(C)C(C(=O)C=C4[C@@H]5C[C@@](C)(C(=O)O)CC[C@]5(C)CC[C@]43C)[C@@]2(C)CC[C@@H]1O (some centres not stated)
False

// outcome(item) with item = COc1ccc2cc1Oc1ccc(cc1)C[C@H]1c3c(cc4c(c3Oc3cc5c(cc3OC)CCN(C)[C@@H]5C2)OCO4)CCN1C
False

// outcome(item) with item = CC(=O)O[C@]1(C(C)=O)CCC2C3C[C@H](C)C4=CC(=O)CC[C@]4(C)C3CC[C@@]21C (some centres not stated)
True

// outcome(item) with item = Cc1cc(=O)c2c(O)cc(O)c(C)c2o1
False

// outcome(item) with item = CC1(C)C2CC[C@]3(C)C(C(=O)C=C4[C@H]5C[C@@](C)(C(=O)O)CC[C@]5(C)CC[C@]43C)[C@@]2(C)CC[C@@H]1O (some centres not stated)
True

// outcome(item) with item = O=C(O)COc1cc(Cl)c(Cl)cc1Cl
False
